assay.summary: photoluminescence quantum yield (fraction); solvent given as SMILES
condition.summary: in CO
Give photoluminescence quantum yield for every item shown.
Answers are plain numbers.

item.smiles: CCN(CC)c1ccc2c(c1)oc(=O)c1cnc3c(cnn3-c3ccccc3)c12
quantity.kind: photoluminescence quantum yield
endpoint.value: 0.222

Report photoluminescence quantum yield for each item below.
1. COc1cc(/C=C2/SC(=O)NC2=O)ccc1O
2. O=C1c2ccccc2-c2ccc(N3CCOCC3)c3cccc1c23
3. COc1cc2c(cc1/C=C/C(=C(C#N)C#N)c1ccccc1)c1ccccc1n2C
4. CN(C)CCN(Cc1c2ccccc2cc2ccccc12)c1ccc([N+](=O)[O-])cc1

Solution:
1: 0.012; 2: 0.12; 3: 0.012; 4: 0.0606

Exercise: Suppose we examine the molecule c1ccc2cc3cc(-c4cc(-c5nccs5)nc(-c5nccs5)c4)ccc3cc2c1 ; what photoluminescence quantum yield value has been reported?
Solution: 0.194

====

assay.summary: photoluminescence quantum yield (fraction); solvent given as SMILES
condition.summary: in CC#N
Hi! Just check whether photoluminescence quantum yield is below 0.3. Below gives Satisfied, equal or above gives Not satisfied.

compound: C[Si](C)(C)[Si](C)(C)c1cccc2cc3ccccc3cc12
discrete.label: Satisfied

Exercise: Input c1ccc2c(c1)ncc1ccc3cnc4ccccc4c3c12 ; condition: photoluminescence quantum yield strictly below 0.3. Does it hold?
Solution: Satisfied

Exercise: Input N#Cc1ccc(-c2pc3ccccc3s2)cc1 (centres undefined) ; condition: photoluminescence quantum yield strictly below 0.3. Does it hold?
Solution: Satisfied

Exercise: Input C(=C\c1ccc(-c2nc3c4cccnc4c4ncccc4c3[nH]2)cc1)/c1ccncc1 ; condition: photoluminescence quantum yield strictly below 0.3. Does it hold?
Solution: Not satisfied

Exercise: Input CC(=O)OC[C@H]1O[C@@H](OCC#Cc2ccc(C3=C4C(C)=CC(/C=C/c5ccc(N(C)C)cc5)=[N+]4[B-](F)(F)n4c(/C=C/c5ccc(N(C)C)cc5)cc(C)c43)cc2)[C@H](OC(C)=O)C(OC(C)=O)[C@@H]1OC(C)=O (some centres undefined) ; condition: photoluminescence quantum yield strictly below 0.3. Does it hold?
Solution: Satisfied

Exercise: Input COc1ccc(/C=C/C=C/C=C/c2ccc([N+](=O)[O-])cc2)cc1 ; condition: photoluminescence quantum yield strictly below 0.3. Does it hold?
Solution: Satisfied

Exercise: Input N#Cc1nn(-c2ccccc2Cl)nc1N1CCCC1 ; condition: photoluminescence quantum yield strictly below 0.3. Does it hold?
Solution: Not satisfied

Exercise: Input O=C1c2ccccc2C2=C(c3ccccn3)NN=C(c3ccccn3)C2c2ccccc21 (centres undefined) ; condition: photoluminescence quantum yield strictly below 0.3. Does it hold?
Solution: Not satisfied

Exercise: Input CCn1c2ccccc2c2cc(/C=C/c3cccc[n+]3CCCS(=O)(=O)[O-])ccc21 ; condition: photoluminescence quantum yield strictly below 0.3. Does it hold?
Solution: Satisfied

Exercise: Input c1cc2c3c(cccc3c1)NC(c1ccc3ccc4cccc5ccc1c3c45)N2 ; condition: photoluminescence quantum yield strictly below 0.3. Does it hold?
Solution: Satisfied

Exercise: Input CC1=[N+]2C(=C(c3c4ccccc4c(-c4ccccc4)c4ccccc34)c3ccc(C)n3[B-]2(F)F)C=C1 ; condition: photoluminescence quantum yield strictly below 0.3. Does it hold?
Solution: Satisfied

Exercise: Input CC(=O)[B-]1(C(C)=O)OC(c2ccccc2)=CC(c2ccccc2)=[O+]1 ; condition: photoluminescence quantum yield strictly below 0.3. Does it hold?
Solution: Not satisfied

Exercise: Input CC(C)(C)c1ccc2c(c1)sc1[n+]2[B-](F)(F)n2c(c3cccc4c(Br)ccc2c43)=N1 ; condition: photoluminescence quantum yield strictly below 0.3. Does it hold?
Solution: Not satisfied

Exercise: Input CCCC(=O)c1c(OCOC)c(OCOC)c(C(=O)CCC)c2c1OCO2 ; condition: photoluminescence quantum yield strictly below 0.3. Does it hold?
Solution: Not satisfied

Exercise: Input COC(=O)c1ccc(O)c(-c2[nH]c(=O)n3c2-c2ccccc2C3=O)c1 ; condition: photoluminescence quantum yield strictly below 0.3. Does it hold?
Solution: Not satisfied

Exercise: Input CCN(CC)c1ccc(-c2nc3c(c4c2-c2ccc(C#N)cc2CC4)-c2ccc(C#N)cc2CC3)cc1 ; condition: photoluminescence quantum yield strictly below 0.3. Does it hold?
Solution: Not satisfied

Exercise: Input O=C(c1ccc(N(c2ccccc2)c2ccccc2)cc1)[C@H]1[C@H](c2cccs2)C[C@](O)(c2ccccn2)C[C@]1(O)c1ccccn1 ; condition: photoluminescence quantum yield strictly below 0.3. Does it hold?
Solution: Satisfied

Exercise: Input CC1=C(C(C)(C)C)C(C)=[N+]2C1=C(C)c1c(C)c(C(C)(C)C)c(C)n1[B-]2(F)F ; condition: photoluminescence quantum yield strictly below 0.3. Does it hold?
Solution: Not satisfied

Exercise: Input CN(C)c1ccc(/C=C/C=C2\CC/C(=C\c3ccc(N(C)C)cc3)C2=O)cc1 ; condition: photoluminescence quantum yield strictly below 0.3. Does it hold?
Solution: Satisfied

====

assay.summary: photoluminescence quantum yield (fraction); solvent given as SMILES
condition.summary: in ClCCl
Label scheme for photoluminescence quantum yield: lower than 0.2 is N, 0.2 and above is Y.

The examples below pair each entry with its known result.
compound: Cc1ccc(OCc2cc(=O)oc3c2ccc2ccccc23)cc1
discrete.label: N

compound: c1ccc(-c2ccc(-c3cc(-c4ccccn4)nc(-c4ccccn4)c3)cc2)cc1
discrete.label: N

compound: Cc1ccc(-c2c3nc(c(-c4ccc(C)cc4)c4ccc([nH]4)c(-c4ccc(OC(=O)C(C)c5ccccc5)cc4)c4nc(c(-c5ccc(C)cc5)c5ccc2[nH]5)C=C4)C=C3)cc1 (stereo unspecified)
discrete.label: N

compound: CN(C)c1ccc(/C=C2\CC/C(=C\c3ccc(C#N)cc3)C2=O)cc1
discrete.label: N

compound: c1ccc2c(c1)c1ccc3cccc4c3c1c2c1c2cccc3ccc5c6ccccc6c(c5c32)c41
discrete.label: N

compound: COc1ccc(-c2cc3c(ccc4sccc43)s2)cc1
discrete.label: Y

compound: C(=C/c1ccc(N(c2ccccc2)c2ccccc2)cc1)/c1ccc(N(c2ccccc2)c2ccccc2)cc1
discrete.label: Y

compound: CCCCCCC1(CCCCCC)c2cc(-c3ccc(-c4ccc(-c5ccc(-c6ccc7c(c6)C(CCCCCC)(CCCCCC)c6cc(-n8c9ccc(-n%10c%11ccccc%11c%11ccccc%11%10)cc9c9cc(-n%10c%11ccccc%11c%11ccccc%11%10)ccc98)ccc6-7)s5)c5nsnc45)s3)ccc2-c2ccc(-n3c4ccc(-n5c6ccccc6c6ccccc65)cc4c4cc(-n5c6ccccc6c6ccccc65)ccc43)cc21
discrete.label: N

compound: CCCCCCCCCCCCCCCCCCOC(=O)/C=C/C1=CC2=C(c3c(C)cc(C)cc3C)c3cccn3[B-](F)(F)[N+]2=C1
discrete.label: Y

compound: COc1cccc(C2=CC3=C(c4c(C)cc(C)cc4C)c4cc(-c5cccc(OC)c5)c(-c5cccc(OC)c5)n4[B-](F)(F)[N+]3=C2c2cccc(OC)c2)c1
discrete.label: Y

Exercise: Please check the record CC1=[N+]2C(=Cc3c4c(cn3[B-]2(F)F)-c2nc-4c(-c3ccccc3)c3ccc([nH]3)c(-c3ccccc3)c3nc(c(-c4ccccc4)c4ccc([nH]4)c2-c2ccccc2)C=C3)C(C)C1 (stereo unspecified) and state if its photoluminescence quantum yield is at or above 0.2.
Solution: N

Exercise: Please check the record CCCCCCNC(=O)c1sc(-c2ccc(-c3cc(-c4ccc(C(C)(C)C)cc4)c(C(=O)NCCCCCC)s3)s2)cc1-c1ccc(C(C)(C)C)cc1 and state if its photoluminescence quantum yield is at or above 0.2.
Solution: Y

Exercise: Please check the record COc1c2ccccc2c(OC)c2c1c1ccc(C(F)(F)F)cc1n2C and state if its photoluminescence quantum yield is at or above 0.2.
Solution: Y

Exercise: Please check the record CCC1=C(C)C2=Cc3c4ccccc4c4n3[B-](c3ccc(OC)cc3)(Oc3ccccc3-4)[N+]2=C1C (stereo unspecified) and state if its photoluminescence quantum yield is at or above 0.2.
Solution: Y

Exercise: Please check the record COc1ccc2cc(/C=C/C3=C4CCc5ccccc5C4=[O+][B-](F)(F)O3)ccc2c1 and state if its photoluminescence quantum yield is at or above 0.2.
Solution: Y

Exercise: Please check the record Cc1cn2cc(-c3ccccc3)[n-][n+]2c1 and state if its photoluminescence quantum yield is at or above 0.2.
Solution: N

====

assay.summary: photoluminescence quantum yield (fraction); solvent given as SMILES
condition.summary: in ClC(Cl)(Cl)Cl
Give photoluminescence quantum yield for every item shown.

# count of solved cases: 5
item.smiles: CC(=O)[B-]1(C(C)=O)OC(C)=CC(c2ccc3ccccc3c2)=[O+]1
photoluminescence quantum yield: 0.16

item.smiles: O=C1c2ccc3c4ccc5c6c(ccc(c7ccc(c2c37)C(=O)N1c1ccncc1)c64)C(=O)N(c1ccncc1)C5=O
photoluminescence quantum yield: 0.97

item.smiles: CN(C)c1ccc(/C=C2\CC/C(=C\c3ccc(C#N)cc3)C2=O)cc1
photoluminescence quantum yield: 0.019

item.smiles: O=C(O)CCCc1cc(C#Cc2ccccc2)c2ccc3c(C#Cc4ccccc4)cc(C#Cc4ccccc4)c4ccc1c2c34
photoluminescence quantum yield: 0.56

item.smiles: O=C1c2ccccc2-c2ccc(N3CCOCC3)c3cccc1c23
photoluminescence quantum yield: 0.18

Report photoluminescence quantum yield for each item below.
1. CC(=O)[B-]1(C(C)=O)OC(c2ccccc2)=CC(c2ccccc2)=[O+]1
2. O=CN1N=C(c2ccc(Br)cc2)C[C@@H]1c1ccccc1
3. CN(C)c1ccc(/C=C/C=C2\CC/C(=C\c3ccc(N(C)C)cc3)C2=O)cc1

Solution:
0.9
0.02
0.068
